Assignment: determine reported IC50 for the given compounds.
Target: HLA-DRB1*07:01 (Homo sapiens, UniProt P01903+P01911, A100R/A102G/A103Q/D57E/D86V/E43K/F76Y/K127E/L162R/M171V/P40G/Q125H/Q99D/R33Q/R42Y/R54Q/S133A/S66F/T210M/V115G/Y107V/Y59L/Y89S)
Assay: biochemical
Format: binding
Conditions: […]; mean of at least two independent experiments; read-out: IC50 DRB1*0701 (converted)
Enter your answer as a number in µM; do not include the unit.

Can you share its IC50? I mean this compound: CC(C)C[C@H](NC(=O)[C@@H](NC(=O)[C@H](CC(N)=O)NC(=O)[C@H](CCC(N)=O)NC(=O)[C@H](CCCCN)NC(=O)[C@@H](NC(=O)[C@H](Cc1ccc(O)cc1)NC(=O)[C@H](CCCCN)NC(=O)[C@@H]1CCCN1)C(C)C)[C@@H](C)O)C(=O)N[C@@H](CCCCN)C(=O)NC(C)(C)C(=O)N[C@@H](C)C(=O)N[C@H](C(=O)O)[C@@H](C)O [Aib11]
3

Can you share its IC50? I mean this compound: CC(C)C[C@H](NC(=O)[C@@H](NC(=O)[C@H](CC(N)=O)NC(=O)[C@H](CCC(N)=O)NC(=O)[C@H](CCCCN)NC(=O)[C@@H](NC(=O)[C@H](Cc1ccc(O)cc1)NC(=O)[C@H](CCCCN)NC(=O)[C@@H]1CCCN1)C(C)C)[C@@H](C)O)C(=O)NC(C)(C)C(=O)N[C@@H](CC(C)C)C(=O)N[C@@H](C)C(=O)N[C@H](C(=O)O)[C@@H](C)O [Aib10]
16
